- target.of.assay: Hexose transporter 1 (Plasmodium falciparum) (UniProt O97467)
- assay: ST_JUDE_LEISH: Cytotoxicity at 2uM final concentration against transgenic Leishmania Mexicana promastigotes LmPfHT that are glucose transport deficient and complemented with the Plasmodium falciparum hexose transporter. Activity is measured by DNA content using SYBR green in vitro
- Format: functional
metric: inhibition (%)

> print(dat)
                      smiles.representation  experimental.result
1  Cn1nc(-c2ccccc2F)c2cc(C(=O)Nc3cccnc3)sc21                 2.08
2  O=C(Nc1cccc(F)c1)NC1CCN(c2ccnc3cc(Cl)ccc23)CC1                 1.28
3  O=C(Nc1ccc(CN2CCOCC2)cc1)c1ccc(-c2ccc(Cl)cc2)o1                -0.82
4  O=C(Cn1c(CCc2cccc(F)c2F)nc(=O)c2ccccc21)N(Cc1ccc(-c2ccc(C(F)(F)F)cc2)cc1)C1CCN(C2=NCCS2)CC1                 4.28

----------
- target.of.assay: Glucose transporter (Leishmania mexicana)
- assay: ST_JUDE_LEISH: Cytotoxicity at 2uM final concentration against transgenic Leishmania Mexicana promastigotes LmGT2 that are glucose transport deficient and complemented with the L. Mexicana glucose transporter 2. Activity is measured by DNA content using SYBR green in vitro
- Assay type: functional
metric: inhibition (%)

> print(dat)
                                    compound                           target.of.assay  experimental.result
 1  CN1CCC(N2CCN(Cc3cccc(-c4ccc(-c5nc6cc(C(F)(F)F)ccc6[nH]5)cc4)c3)CC2)CC1  Glucose transporter (Leishmania mexicana)                 2.07
 2  COc1ccc(CNCc2ccccc2)cc1-c1ccc(S(=O)(=O)NCCN2CCCC2)cc1  Glucose transporter (Leishmania mexicana)                -2.76
 3         OCCCCCCNc1ccnc2[nH]c3ccc(I)cc3c12  Glucose transporter (Leishmania mexicana)                 3.14
 4  COc1ccc2nc3cc(Cl)ccc3c(NCCCCCCNc3c4ccc(Cl)cc4nc4ccc(OC)cc34)c2c1  Glucose transporter (Leishmania mexicana)                  9.4
 5  O=C(Nc1ccccc1Cc1ccccc1)c1ccccc1[N+](=O)[O-]  Glucose transporter (Leishmania mexicana)                -2.02
 6  O=C(Nc1cccc(-c2cccc(-c3nc4cc(C(F)(F)F)ccc4[nH]3)c2)c1)c1ccc(=O)[nH]n1  Glucose transporter (Leishmania mexicana)                 9.62
 7  CC(=O)N(C)c1cccc(C(=O)Nc2cccc(-c3cccc(-c4nc5cc(C(F)(F)F)ccc5[nH]4)c3)c2)c1  Glucose transporter (Leishmania mexicana)                 5.52
 8  CC(C)CNC(=O)c1cncc(-c2ccc(CNCCCc3ccccc3)cc2)c1  Glucose transporter (Leishmania mexicana)                -0.55
 9  CN(Cc1cccc(F)c1)C1CCN(c2cc(NC(=O)c3cccc(F)c3)ccn2)CC1  Glucose transporter (Leishmania mexicana)                  2.7
10  COc1cccc(C(=O)C2CC2CN(C)CC(O)c2cc(C)c(OC)cc2C)c1 (stereo unspecified)  Glucose transporter (Leishmania mexicana)                 0.15
11  O=C(Nc1cccc(-c2nn3ccccc3c2-c2ccnc(Nc3ccc(C(=O)N4CCOCC4)cc3)n2)c1)c1c(F)cccc1F  Glucose transporter (Leishmania mexicana)                 2.78

----------
- target.of.assay: Glucose transporter (Leishmania mexicana) (UniProt O61059)
- assay: ST_JUDE_LEISH: Cytotoxicity at 2uM final concentration against transgenic Leishmania Mexicana promastigotes LmGT2 that are glucose transport deficient and complemented with the L. Mexicana glucose transporter 2. Activity is measured by DNA content using SYBR green in vitro
- Format: functional
metric: inhibition (%)

> print(dat)
                                    compound  experimental.result
 1  CCCCNC(=O)[C@H](CC1CCCCC1)NC(=O)c1ccc(O)c(-c2ccc(OC)cc2)c1                 4.23
 2  O=C(Nc1cccc(-c2csc(NC(=O)c3ccc4ccccc4c3)n2)c1)c1ccc2ccccc2c1                 0.66
 3  CCCCc1ccc(C(=O)NC2CCN(C[C@H](O)c3ccnc4ccc(OC)cc34)CC2)cc1                 76.8
 4   Cc1cc(Br)cnc1CCCCNc1cc(=O)c2ccccc2[nH]1                 4.81
 5  CC(C)(C)NC(=O)C(c1ccc(F)cc1)N(C(=O)c1ccc(CN2CCOCC2)o1)c1ccc(C2CCCCC2)cc1 (stereo not given)                 0.51
 6  COc1ccc2nccc([C@@H](O)CN3CCC(NCCOc4ccc(F)cc4[N+](=O)[O-])CC3)c2c1                 1.61
 7  CC1(C)[C@H]2CC[C@@H](CNc3nc(NCC(=O)Nc4ccc5ccccc5c4)nc(N4CCC(N5CCCC5)CC4)n3)[C@@H]1C2                 2.89
 8  CCc1cn2c3c(cc(C(=O)N[C@@H](Cc4ccccc4)[C@H](O)CNCc4ccccc4)cc13)N(C)S(=O)(=O)CC2                 0.13
 9    COc1ccc2nc(C)cc(Nc3ccc(Cl)c(Cl)c3)c2c1                 17.3
10  CC(=O)Nc1csc(-c2cnc(/C=C(\C)C[C@@H]3OC[C@H](C[C@@H]4O[C@H]4[C@@H](C)[C@H](C)O)[C@@H](O)[C@H]3O)o2)c1                 2.39

----------
- target.of.assay: Glucose transporter (Leishmania mexicana) (UniProt O61059)
- assay: ST_JUDE_LEISH: Cytotoxicity at 2uM final concentration against transgenic Leishmania Mexicana promastigotes LmGT2 that are glucose transport deficient and complemented with the L. Mexicana glucose transporter 2. Activity is measured by DNA content using SYBR green in vitro
- Format: functional
metric: inhibition (%)

> print(dat)
                                    molecule  u  experimental.result
 1  COc1cccc(CNC(=O)[C@@H]2CN(C(=O)c3ccccc3)CCN2)c1  %                 0.71
 2  COc1ccc2ccccc2c1CCCCN1CCN(CC(c2ccc(F)cc2)N2CCC(N3CCCC3)CC2)CC1 (stereo unspecified)  %                 7.05
 3  Oc1ccccc1CNC1CCCCC1NCc1ccccc1O (stereo unspecified)  %                 4.48
 4  CCCCCCSc1nnc(COc2cccc3ccccc23)n1-c1ccc(OC)cc1  %                 10.3
 5  Cc1cccc2nc(-c3ccc(-c4ccc(CN5CCC(C(N)=O)CC5)cc4)cc3)[nH]c12  %                 5.21
 6  COc1ccc(NC(=O)C2c3ccccc3C(=O)N(C3CCCC3)C2c2cccs2)c(OC)c1 (stereo unspecified)  %                -1.93
 7       CC(=NNC(=N)N)c1ccc2c(c1)Cc1ccccc1-2  %                 -1.5
 8  Cc1cccc2c(/C=C/C(=O)NC3CCC(CCN4CCc5ccc(C#N)cc5CC4)CC3)c[nH]c12 (stereo unspecified)  %                 7.58
 9  NC(=O)c1ccc(NCC(=O)Nc2cccc(-c3cccc(-c4nc5ccccc5[nH]4)c3)c2)cc1  %                 0.95
10  O=S(=O)(NC1=NCCC1)c1cccc(Nc2nc(C(F)(F)F)nc3ccccc23)c1  %                -3.08
11  CC(C)C1C(O)=C(c2ccc3ccccc3c2)C(=O)N1Cc1cccc(F)c1 (stereo unspecified)  %                 8.55

----------
We begin with a simple list: items and their reported inhibition.
- target.of.assay: Solute carrier family 2, facilitated glucose transporter member 1 (Homo sapiens) (UniProt P11166)
- Sequence (P11166 whole entry): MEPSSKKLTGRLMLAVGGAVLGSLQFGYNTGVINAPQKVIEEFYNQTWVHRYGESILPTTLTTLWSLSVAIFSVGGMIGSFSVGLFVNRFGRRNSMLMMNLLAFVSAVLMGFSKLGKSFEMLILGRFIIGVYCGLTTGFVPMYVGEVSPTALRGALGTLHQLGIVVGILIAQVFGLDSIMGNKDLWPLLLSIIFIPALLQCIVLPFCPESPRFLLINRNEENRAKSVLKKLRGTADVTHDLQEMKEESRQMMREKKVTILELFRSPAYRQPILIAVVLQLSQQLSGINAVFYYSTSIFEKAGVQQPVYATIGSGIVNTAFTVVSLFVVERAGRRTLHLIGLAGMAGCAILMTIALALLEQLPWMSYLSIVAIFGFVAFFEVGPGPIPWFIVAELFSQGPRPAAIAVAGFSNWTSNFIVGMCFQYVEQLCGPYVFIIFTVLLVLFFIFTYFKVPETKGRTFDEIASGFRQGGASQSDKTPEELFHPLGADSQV
- assay: ST_JUDE_LEISH: Cytotoxicity at 2uM final concentration against transgenic Leishmania Mexicana promastigotes LmGLUT1 that are glucose transport deficient and complemented with the human glucose transporter GLUT1. Activity is measured by DNA content using SYBR green in vitro
- Assay type: functional
metric: inhibition (%)

> print(dat)
                                   compound  experimental.result
1  Cc1ccc(NC(=O)c2ccc(CN3CCCN(Cc4cccc(Cl)c4)CC3)cc2)cc1C                 3.09
2  CC(OC(=O)c1ccc(C(=O)NCC2CC2)cc1)C(C)(C)C (centres undefined)                  4.1
3  CCCC(C)NC(=O)C(N)Cc1cccc(I)c1 (centres undefined)                 1.78
4  O=C(Nc1cccc(-c2ccc(CN3CCCC3)cc2)c1)c1cccc(F)c1                -0.49
5  Cc1cc(N[C@@H](Cc2ccccc2)C(=O)NCCOc2ccccc2)nc(NCCOc2ccccc2)n1                 1.88
6  Nc1c(Cl)cc(C(O)CNCCCCCCOCCc2ccc(CO)s2)cc1Cl (centres undefined)                 2.77
7  O=c1cc(NCCCNCc2ccc(C(F)(F)F)c(F)c2)[nH]c2ccccc12                 0.24
8  CCOc1cc(CC)ccc1C1CCN(CCN2CCC(CNC(=O)c3ccc(-c4ccc(C#N)cc4)cc3)CC2)CC1                 16.2
9  COc1cccc(OCC2CCCN(CCCCNC(=O)c3ccc(NC(=O)c4ccc(Cl)cc4)cc3)C2)c1 (centres undefined)                -2.42

Entry source: ChEMBL document CHEMBL3433997
